Please respond with reported viability at 48 h, 125 ug/ml for every item in the list.
# ASSAY TEXT: MTT cell viability assay on normal Vero cells (selectivity)
# Assay type: cell-based
# CONDITION CONTEXT: African green monkey, Vero cells (normal kidney cells), 125 ug/ml

// query Look at this compound and give its reported viability at 48 h, 125 ug/ml. "O=C(O)/C=C/c1ccc(O)c(O)c1"
// result 63.6%

// query Look at this compound and give its reported viability at 48 h, 125 ug/ml. "COc1cc(/C=C/C(=O)O)ccc1O"
// result 70.2%

---

# Tested on: Caco-2 cells
# ASSAY TEXT: Annexin V-FITC/PI apoptosis assay by flow cytometry
# Type: cell-based
# Set-up: key: % of cells
# CONDITION CONTEXT: annexin-V FITC/PI staining, 24h
REPORTED PROPERTY: Apoptosis Total

// query Look at this compound and give its reported Apoptosis Total. "Cc1ccc(NC(=O)/C=C/c2ccc(O)c(O)c2)cc1"
// result 7.56

// query Look at this compound and give its reported Apoptosis Total. "COc1cc(/C=C/C(=O)NC2CCCCC2)ccc1O"
// result 25.17

// query Look at this compound and give its reported Apoptosis Total. "O=C(/C=C/c1ccc(O)c(O)c1)Nc1ccc(Br)cc1"
// result 18.26

// query Look at this compound and give its reported Apoptosis Total. "O=C(/C=C/c1ccc(O)c(O)c1)NCc1ccccc1"
// result 9.62

// query Look at this compound and give its reported Apoptosis Total. "O=C(/C=C/c1ccc(O)c(O)c1)Nc1ccc(Cl)cc1"
// result 23.42

// query Look at this compound and give its reported Apoptosis Total. "COc1ccc(/C=C/C(=O)Nc2ccccc2N)cc1O"
// result 8.62

// query Look at this compound and give its reported Apoptosis Total. "O=C(O)/C=C/c1ccc(O)c(O)c1"
// result 11.31

// query Look at this compound and give its reported Apoptosis Total. "Nc1ccccc1NC(=O)/C=C/c1ccc(O)c(O)c1"
// result 14.04

// query Look at this compound and give its reported Apoptosis Total. "COc1cc(/C=C/C(=O)O)ccc1O"
// result 13.22

// query Look at this compound and give its reported Apoptosis Total. "COc1ccc(/C=C/C(=O)NCc2ccccc2)cc1O"
// result 12.92

---

Please respond with reported viability at 48 h, 62.5 ug/ml for every item in the list.
# ASSAY TEXT: MTT cell viability assay on normal Vero cells (selectivity)
# Type: cell-based
# CONDITION CONTEXT: African green monkey, Vero cells (normal kidney cells), 62.5 ug/ml
# number only, unit % dropped from output

// query Look at this compound and give its reported viability at 48 h, 62.5 ug/ml. "COc1cc(/C=C/C(=O)O)ccc1O"
// result 95.5

// query Look at this compound and give its reported viability at 48 h, 62.5 ug/ml. "O=C(O)/C=C/c1ccc(O)c(O)c1"
// result 99.3

---

# System: Caco-2 cells
# ASSAY TEXT: Annexin V-FITC/PI apoptosis assay by flow cytometry
# Type: cell-based
# Set-up: key: % of cells
# CONDITION CONTEXT: annexin-V FITC/PI staining, 24h
REPORTED PROPERTY: Early Apoptosis
In your answer, state the number alone without any accompanying words.

// query Look at this molecule and give its reported Early Apoptosis. Nc1ccccc1NC(=O)/C=C/c1ccc(O)c(O)c1 [Compound 11]
// result 2.47

// query Look at this molecule and give its reported Early Apoptosis. COc1ccc(/C=C/C(=O)Nc2ccccc2N)cc1O [Compound 20]
// result 2.19

// query Look at this molecule and give its reported Early Apoptosis. O=C(/C=C/c1ccc(O)c(O)c1)Nc1ccc(Cl)cc1 [Compound 10]
// result 7.59

// query Look at this molecule and give its reported Early Apoptosis. COc1cc(/C=C/C(=O)NC2CCCCC2)ccc1O [Compound 15]
// result 5.79

// query Look at this molecule and give its reported Early Apoptosis. O=C(O)/C=C/c1ccc(O)c(O)c1 [Compound 1, Caffeic acid]
// result 3.41

// query Look at this molecule and give its reported Early Apoptosis. COc1cc(/C=C/C(=O)O)ccc1O [Compound 2, Ferulic acid]
// result 5.17

// query Look at this molecule and give its reported Early Apoptosis. Cc1ccc(NC(=O)/C=C/c2ccc(O)c(O)c2)cc1 [Compound 5]
// result 2.59

// query Look at this molecule and give its reported Early Apoptosis. O=C(/C=C/c1ccc(O)c(O)c1)NCc1ccccc1 [Compound 9]
// result 3.72

// query Look at this molecule and give its reported Early Apoptosis. O=C(/C=C/c1ccc(O)c(O)c1)Nc1ccc(Br)cc1 [Compound 7]
// result 4.75

// query Look at this molecule and give its reported Early Apoptosis. COc1ccc(/C=C/C(=O)NCc2ccccc2)cc1O [Compound 18]
// result 3.88

---

# Tested on: Caco-2 cells
# ASSAY TEXT: Cell-cycle analysis by flow cytometry
# Assay type: cell-based
# CONDITION CONTEXT: Caco-2 cells, cell-cycle distribution after treatment
Please respond with reported %G2/M for every item in the list.

// query Form field: %G2/M recorded for "COc1ccc(/C=C/C(=O)NCc2ccccc2)cc1O" with Caco-2 cells (enter value)
// result 37.62 ± 2.47%

// query Form field: %G2/M recorded for "COc1cc(/C=C/C(=O)NC2CCCCC2)ccc1O" with Caco-2 cells (enter value)
// result 50.83 ± 3.49%

// query Form field: %G2/M recorded for "O=C(/C=C/c1ccc(O)c(O)c1)Nc1ccc(Br)cc1" with Caco-2 cells (enter value)
// result 44.91 ± 3.42%

// query Form field: %G2/M recorded for "O=C(/C=C/c1ccc(O)c(O)c1)NCc1ccccc1" with Caco-2 cells (enter value)
// result 30.05 ± 2.59%

// query Form field: %G2/M recorded for "O=C(/C=C/c1ccc(O)c(O)c1)Nc1ccc(Cl)cc1" with Caco-2 cells (enter value)
// result 41.98 ± 2.18%

// query Form field: %G2/M recorded for "Nc1ccccc1NC(=O)/C=C/c1ccc(O)c(O)c1" with Caco-2 cells (enter value)
// result 25.55 ± 2.47%

// query Form field: %G2/M recorded for "Cc1ccc(NC(=O)/C=C/c2ccc(O)c(O)c2)cc1" with Caco-2 cells (enter value)
// result 26.86 ± 2.75%

// query Form field: %G2/M recorded for "COc1ccc(/C=C/C(=O)Nc2ccccc2N)cc1O" with Caco-2 cells (enter value)
// result 26.84 ± 2.34%

// query Form field: %G2/M recorded for "O=C(O)/C=C/c1ccc(O)c(O)c1" with Caco-2 cells (enter value)
// result 20.49 ± 1.92%

---

# Tested on: Caco-2 cells
# ASSAY TEXT: Cell-cycle analysis by flow cytometry
# Type: cell-based
# CONDITION CONTEXT: Caco-2 cells, cell-cycle distribution after treatment
REPORTED PROPERTY: %G0–G1 (%)
# number only, unit % dropped from output

// query Look at this molecule and give its reported %G0–G1. "O=C(/C=C/c1ccc(O)c(O)c1)Nc1ccc(Cl)cc1"
// result 29.75

// query Look at this molecule and give its reported %G0–G1. "O=C(/C=C/c1ccc(O)c(O)c1)NCc1ccccc1"
// result 38.51

// query Look at this molecule and give its reported %G0–G1. "COc1ccc(/C=C/C(=O)Nc2ccccc2N)cc1O"
// result 39.12

// query Look at this molecule and give its reported %G0–G1. "O=C(O)/C=C/c1ccc(O)c(O)c1"
// result 46.29

// query Look at this molecule and give its reported %G0–G1. "O=C(/C=C/c1ccc(O)c(O)c1)Nc1ccc(Br)cc1"
// result 28.68

// query Look at this molecule and give its reported %G0–G1. "Nc1ccccc1NC(=O)/C=C/c1ccc(O)c(O)c1"
// result 41.09

// query Look at this molecule and give its reported %G0–G1. "Cc1ccc(NC(=O)/C=C/c2ccc(O)c(O)c2)cc1"
// result 41.52

// query Look at this molecule and give its reported %G0–G1. "COc1cc(/C=C/C(=O)NC2CCCCC2)ccc1O"
// result 26.59

// query Look at this molecule and give its reported %G0–G1. "COc1ccc(/C=C/C(=O)NCc2ccccc2)cc1O"
// result 33.26

---

# Tested on: MMP-2
# ASSAY TEXT: RT-qPCR gene expression of MMP-2
# Assay type: cell-based
# CONDITION CONTEXT: Caco2, relative to cont.Caco2 = 1
Please respond with reported MMP2 Fold Change for every item in the list.

// query Look at this molecule and give its reported MMP2 Fold Change. "O=C(/C=C/c1ccc(O)c(O)c1)Nc1ccc(Br)cc1"
// result 0.16±0.004 Fold Change

// query Look at this molecule and give its reported MMP2 Fold Change. "COc1cc(/C=C/C(=O)NC2CCCCC2)ccc1O"
// result 0.59±0.016 Fold Change

// query Look at this molecule and give its reported MMP2 Fold Change. "Nc1ccccc1NC(=O)/C=C/c1ccc(O)c(O)c1"
// result 0.54±0.014 Fold Change

// query Look at this molecule and give its reported MMP2 Fold Change. "COc1ccc(/C=C/C(=O)Nc2ccccc2N)cc1O"
// result 0.68±0.018 Fold Change

// query Look at this molecule and give its reported MMP2 Fold Change. "COc1ccc(/C=C/C(=O)NCc2ccccc2)cc1O"
// result 0.42±0.011 Fold Change
